Assay: Plasma pharmacokinetics after a single subcutaneous dose in healthy volunteers
Format: in vivo, human
Details: male, human, plasma, sc, 600 ug
*1 amine or outer side, *2 acyl side, *3 side chain or, on linkers, in order; H or OH if unused. Where a SMILES comes first, the peptide text is derived from it. Side-chain parts run from the residue outwards. [ ]: non-standard residue; d: D form. The star is where a group is joined. Ethylenediamine = C(CN[*:2])N[*:1]; Hyp = O=C(O)[C@@H]1C[C@@H](O)CN1; Phg = N[C@H](C(=O)O)c1ccccc1; CO = O=C([*:1])[*:2]; Bn = c1ccc(C*)cc1
observed-property: CL/F (mL/min)
The response must be a number in mL/min with no trailing unit.

Quick check: CL/F of NCCCC[C@@H]1NC(=O)[C@@H](Cc2c[nH]c3ccccc23)NC(=O)[C@H](c2ccccc2)NC(=O)[C@@H]2C[C@@H](OC(=O)NCCN)CN2C(=O)[C@H](Cc2ccccc2)NC(=O)[C@H](Cc2ccc(OCc3ccccc3)cc2)NC1=O [Pasireotide] (cyclo([Hyp]([CO-Ethylenediamine])[Phg][dW]KY(Bn)F)) ?
130
